Kindly supply the reported pIC50 values for the records listed here.
System: MT-4 cells
Assay: Cell growth inhibition (cytotoxicity) of uninfected cells
Assay type: cell-based
Details: table title: MT-4 cells; uninfected H9 cell growth; read-out: IC50 (concentration that inhibits uninfected cell growth by 50%)
pIC50: −log10 of the molar value.

### Prompt Param item = `CC(C)C[C@H](NC(=O)[C@]12CCC(C)(C)C=C1[C@H]1CC[C@@H]3[C@@]4(C)CC[C@H](OC(=O)CC(C)(C)C(=O)O)C(C)(C)[C@@H]4CC[C@@]3(C)[C@]1(C)CC2)C(=O)O` ; retrieve measured pIC50.
### Response < 4.84

### Prompt I would be grateful if you could share the reported pIC50 for CC(C)CC(CO)NC(=O)[C@]12CCC(C)(C)C=C1[C@H]1CC[C@@H]3[C@@]4(C)CC[C@H](OC(=O)CC(C)(C)C(=O)O)C(C)(C)[C@@H]4CC[C@@]3(C)[C@]1(C)CC2 (stereo partly drawn) .
### Response < 4.84

### Prompt Looking for the measured pIC50 of Cc1cn([C@H]2C[C@H](N=[N+]=[N-])[C@@H](CO)O2)c(=O)[nH]c1=O [AZT, reference compound] , can you help?
### Response < 4.43
